Experimental Target: T1, Bzz1-2, P38822
T1 sequence (P38822 568-633, looked up): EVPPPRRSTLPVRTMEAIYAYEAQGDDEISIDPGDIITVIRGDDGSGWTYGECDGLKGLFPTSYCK
Test: SPOT array
Experimental Setup: median of control spots 4538
Collected SPOT intensity values appear next to each entry.
A bare number is all that is needed in reply.

For reference, reported SPOT intensity for NMLKKKPLKKPLKRF stands at 46

---
Looking up QRKSLRRPTLSKPAV , I see its SPOT intensity listed as 16

The binder listed as TPRLSLPRLPNKHHW has a reported SPOT intensity of 1

Measured SPOT intensity, PIVPSSPAPPLPLSG : 0

The value of SPOT intensity measured for the binder PLQSKIPMLPSRRTM turned out to be 0

EREKALPPIPFTTTL yielded SPOT intensity of 0

SPOT intensity recorded for this binder, TPTSGPPLLPPRNTM , is 0

Sure, the documented SPOT intensity for RKRRTHLRLPLIRSN is 0

Recorded result, QTREPNEPPPPSPAM , SPOT intensity: 0
